Recorded values, source patent US20050249805A1.

Target: carboxylesterase
Assay: IC50 of carboxylesterase inhibitor (reduction in metabolic conversion of anti-HCV compound)
QUANTITY MEASURED: IC50

Name the recorded IC50 for O=[N+]([O-])c1ccc(OP(=O)(O)Oc2ccc([N+](=O)[O-])cc2)cc1 [BNPP, bis(p-nitrophenyl) phosphate] .
10 to 50 µM
